Details: 298.15 K, Wilhelmy-plate method
Criterion: surface tension liquid-gas strictly less than 30 mN/m. Met: YES. Not met: NO.

Worked examples follow.
compound	labelClass
CCOC(=O)c1ccccc1 [ethyl benzoate]	NO
COC(=O)c1ccccc1 [methyl benzoate]	NO
CCCC(=O)OCCC(C)C [3-methylbutyl butanoate]	YES
CCOC(=O)Cc1ccccc1 [ethyl phenylacetate]	NO
CC(=O)OCc1ccccc1 [benzyl ethanoate]	NO
CCOC(=O)c1ccccc1O [ethyl 2-hydroxybenzoate]	NO
CCOC(=O)CC(C)=O [ethyl 3-oxobutanoate]	NO
CCCCCC(=O)OCC [ethyl hexanoate]	YES

Input CCCCCCCC(=O)OCC [ethyl octanoate] ; condition: surface tension liquid-gas strictly below 30 mN/m. Does it hold?
YES

Input CCC(=O)OCc1ccccc1 [benzyl propanoate] ; condition: surface tension liquid-gas strictly below 30 mN/m. Does it hold?
NO

Input CC(=O)OCCC(C)C [3-methylbutyl ethanoate] ; condition: surface tension liquid-gas strictly below 30 mN/m. Does it hold?
YES

Input CCOC(=O)CC(C)C [ethyl 3-methylbutanoate] ; condition: surface tension liquid-gas strictly below 30 mN/m. Does it hold?
YES

----------
Measured mass density values are reported for all entries that follow.
Conditions: 328.15 K; 101.33 kPa; Liquid
The answer is to be given in kg/m3; state only the numeric part.

Look over these answered cases.
molecule	mass density [kg/m3]
CCCCCC(=O)OCC [ethyl hexanoate]	838.05
CCOC(=O)c1ccccc1 [ethyl benzoate]	1013.4
CC(=O)OCCC(C)C [3-methylbutyl ethanoate]	838.22
CCCCCCCC(=O)OCC [ethyl octanoate]	836.21
CCC(=O)OCc1ccccc1 [benzyl propanoate]	999.93

For this molecule ( CCOC(=O)c1ccccc1O [ethyl 2-hydroxybenzoate] ), measured mass density is 1095.94

For this molecule ( CCOC(=O)Cc1ccccc1 [ethyl phenylacetate] ), measured mass density is 998.93

For this molecule ( COC(=O)c1ccccc1 [methyl benzoate] ), measured mass density is 1054.82

For this molecule ( CCOC(=O)CC(C)C [ethyl 3-methylbutanoate] ), measured mass density is 829.71

For this molecule ( CCOC(=O)CC(C)=O [ethyl 3-oxobutanoate] ), measured mass density is 992.26

For this molecule ( CCCC(=O)OCCC(C)C [3-methylbutyl butanoate] ), measured mass density is 831.47

For this molecule ( CC(=O)OCc1ccccc1 [benzyl ethanoate] ), measured mass density is 1022.67

----------
Settings: 318.15 K, Wilhelmy-plate method
Measured surface tension liquid-gas values are reported for all entries that follow.
The answer is to be given in mN/m; state only the numeric part.

Look over these answered cases.
compound	unitTag	surface tension liquid-gas
CCOC(=O)Cc1ccccc1 [ethyl phenylacetate]	mN/m	32.8
CCC(=O)OCc1ccccc1 [benzyl propanoate]	mN/m	32.4
CCOC(=O)c1ccccc1 [ethyl benzoate]	mN/m	32.5
CCCCCCCC(=O)OCC [ethyl octanoate]	mN/m	24.7
CC(=O)OCCC(C)C [3-methylbutyl ethanoate]	mN/m	22.4
CCOC(=O)CC(C)C [ethyl 3-methylbutanoate]	mN/m	21.6

For this compound ( CCCC(=O)OCCC(C)C [3-methylbutyl butanoate] ), measured surface tension liquid-gas is 23.1

For this compound ( COC(=O)c1ccccc1 [methyl benzoate] ), measured surface tension liquid-gas is 34.8

For this compound ( CCOC(=O)CC(C)=O [ethyl 3-oxobutanoate] ), measured surface tension liquid-gas is 30

----------
Experiment: refractive index (Na D-line) (dimensionless)
Conditions: 308.15 K; 101.33 kPa; Liquid; Standard Abbe refractometry
reportedMetric: refractive index
Answer field: number only, no words.

Look over these answered cases.
compound	reportedMetric	recordedMeasurement
CCCCCCCC(=O)OCC [ethyl octanoate]	refractive index	1.41137
CCCCCC(=O)OCC [ethyl hexanoate]	refractive index	1.40055
CCOC(=O)Cc1ccccc1 [ethyl phenylacetate]	refractive index	1.49063
CCOC(=O)CC(C)C [ethyl 3-methylbutanoate]	refractive index	1.38931

For this compound ( CCC(=O)OCc1ccccc1 [benzyl propanoate] ), measured refractive index is 1.49074

For this compound ( CC(=O)OCc1ccccc1 [benzyl ethanoate] ), measured refractive index is 1.49539

----------
Conditions: 338.15 K; 101.33 kPa; Liquid
Numbers after ± are expanded uncertainties.
Measured mass density values are reported for all entries that follow.
// return the numeric value with its unit appended

compound	reportedMetric	recordedMeasurement
CCOC(=O)Cc1ccccc1 [ethyl phenylacetate]	mass density	989.61 ± 0.35 kg/m3

For this compound ( CCC(=O)OCc1ccccc1 [benzyl propanoate] ), measured mass density is 990.72 ± 0.35 kg/m3

For this compound ( CCOC(=O)CC(C)=O [ethyl 3-oxobutanoate] ), measured mass density is 981.58 ± 0.45 kg/m3

For this compound ( CC(=O)OCc1ccccc1 [benzyl ethanoate] ), measured mass density is 1013.29 ± 0.28 kg/m3

For this compound ( CCOC(=O)c1ccccc1 [ethyl benzoate] ), measured mass density is 1004.06 ± 0.2 kg/m3

----------
Conditions: 358.15 K, Wilhelmy-plate method
reportedMetric: surface tension liquid-gas (mN/m)
The answer is to be given in mN/m; state only the numeric part.

Look over these answered cases.
molecule	unitTag	recordedMeasurement
CCCCCC(=O)OCC [ethyl hexanoate]	mN/m	20
CCCCCCCC(=O)OCC [ethyl octanoate]	mN/m	21.4

Next molecule, please.
For this molecule ( CCOC(=O)CC(C)=O [ethyl 3-oxobutanoate] ), measured surface tension liquid-gas is 26.1

----------
Measured viscosity values are reported for all entries that follow.
Conditions: 288.15 K; 101.33 kPa; Liquid; Capillary tube (Ostwald / Ubbelohde) method
The answer is to be given in mPa·s; state only the numeric part.

Look over these answered cases.
compound	recordedMeasurement
CCCC(=O)OCCC(C)C [3-methylbutyl butanoate]	1.317
CCCCCC(=O)OCC [ethyl hexanoate]	1.102
CCOC(=O)CC(C)=O [ethyl 3-oxobutanoate]	1.902
CC(=O)OCc1ccccc1 [benzyl ethanoate]	2.53
CCOC(=O)c1ccccc1 [ethyl benzoate]	2.444

For this compound ( CCOC(=O)c1ccccc1O [ethyl 2-hydroxybenzoate] ), measured viscosity is 3.694

For this compound ( CCOC(=O)CC(C)C [ethyl 3-methylbutanoate] ), measured viscosity is 0.853

----------
Conditions: 288.15 K, Wilhelmy-plate method
Threshold check on surface tension liquid-gas: at or above 30 mN/m gives criterion met, strictly below gives criterion not met.

compound	labelClass
CCCC(=O)OCCC(C)C [3-methylbutyl butanoate]	criterion not met

In plain terms: is recorded surface tension liquid-gas at least 30 mN/m for CCOC(=O)c1ccccc1O [ethyl 2-hydroxybenzoate] ?
criterion met

----------
Measured surface tension liquid-gas values are reported for all entries that follow.
Settings: 288.15 K, Wilhelmy-plate method
The answer is to be given in mN/m; state only the numeric part.

Look over these answered cases.
molecule	unitTag	recordedMeasurement
CC(=O)OCc1ccccc1 [benzyl ethanoate]	mN/m	37.7
CCCCCCCC(=O)OCC [ethyl octanoate]	mN/m	27.2
CCOC(=O)c1ccccc1 [ethyl benzoate]	mN/m	35.7
CCCCCC(=O)OCC [ethyl hexanoate]	mN/m	26.4
CC(=O)OCCC(C)C [3-methylbutyl ethanoate]	mN/m	25.4
COC(=O)c1ccccc1 [methyl benzoate]	mN/m	38.6
CCOC(=O)CC(C)=O [ethyl 3-oxobutanoate]	mN/m	33.3

Next molecule, please.
For this molecule ( CCOC(=O)Cc1ccccc1 [ethyl phenylacetate] ), measured surface tension liquid-gas is 35.9
